Assay: NAPADE pharmacokinetics in chloralose-urethane anesthetized dogs (HPLC plasma levels, two-compartment model)
Type: in vivo, dog (male mongrel)
Settings: dog, plasma, iv, 60 mg/kg, individual dogs No. 1-8, one line per dog; NAPADE-HCl 60 mg/kg, 15-minute IV infusion; read-out: T1/2(BETA) (elimination half-life)
Measurement Label: half-life (min)
Give the quantity in min, number only.

Given the compound CCNCCNC(=O)c1ccc(NC(C)=O)cc1 [NAPADE, Desethyl-N-acetylprocainamide] , what is its reported half-life?
55

----------
Assay: NAPADE pharmacokinetics in chloralose-urethane anesthetized dogs (HPLC plasma levels, two-compartment model)
Assay type: in vivo, dog (male mongrel)
Settings: dog, plasma, iv, 60 mg/kg, mean of 8 dogs; NAPADE-HCl 60 mg/kg, 15-minute IV infusion; read-out: VTOTAL (total apparent volume of distribution)
Measurement Label: Vd (L/kg)
The reply should contain only the number, in L/kg.

Given the compound CCNCCNC(=O)c1ccc(NC(C)=O)cc1 [NAPADE, Desethyl-N-acetylprocainamide] , what is its reported Vd?
0.513

----------
Assay: NAPADE pharmacokinetics in chloralose-urethane anesthetized dogs (HPLC plasma levels, two-compartment model)
Format: in vivo, dog (male mongrel)
Conditions: dog, plasma, iv, 60 mg/kg, mean of 8 dogs (± SEM in text); NAPADE-HCl 60 mg/kg, 15-minute IV infusion; read-out: T1/2 beta (terminal / elimination half-life)
Measurement Label: half-life

Any idea what its half-life is? The molecule is CCNCCNC(=O)c1ccc(NC(C)=O)cc1 [NAPADE, Desethyl-N-acetylprocainamide]
54.5 min

----------
Assay: NAPADE pharmacokinetics in chloralose-urethane anesthetized dogs (HPLC plasma levels, two-compartment model)
Format: in vivo, dog (male mongrel)
Settings: dog, plasma, iv, 60 mg/kg, mean of 8 dogs; NAPADE-HCl 60 mg/kg, 15-minute IV infusion; read-out: VCENTRAL (volume of the central compartment)
Measurement Label: Vd (L/kg)
Your answer should be a plain number; it is taken to be in L/kg.

Given the entry CCNCCNC(=O)c1ccc(NC(C)=O)cc1 [NAPADE, Desethyl-N-acetylprocainamide] , report its measured Vd.
0.153

----------
Test: NAPADE pharmacokinetics in chloralose-urethane anesthetized dogs (HPLC plasma levels, two-compartment model)
Type: in vivo, dog (male mongrel)
Conditions: dog, plasma; NAPADE-HCl 60 mg/kg, 15-minute IV infusion; at 15 minutes; mean ± SEM; read-out: peak NAPADE concentrations (plasma)
Measurement Label: Cmax at 0.25 h (µg/mL)
Write the value in µg/mL as a bare number.

I have this compound here, CCNCCNC(=O)c1ccc(NC(C)=O)cc1 [NAPADE, Desethyl-N-acetylprocainamide] , and I need its recorded Cmax at 0.25 h.
165

----------
Test: NAPADE pharmacokinetics in chloralose-urethane anesthetized dogs (HPLC plasma levels, two-compartment model)
Format: in vivo, dog (male mongrel)
Conditions: dog, plasma, iv, 60 mg/kg, mean of 8 dogs; NAPADE-HCl 60 mg/kg, 15-minute IV infusion; read-out: ClELIMINATION (elimination clearance)
Measurement Label: clearance (mL/min/kg)
// note: answer is a bare numeric in mL/min/kg

Would you mind telling me what clearance value was observed for CCNCCNC(=O)c1ccc(NC(C)=O)cc1 [NAPADE, Desethyl-N-acetylprocainamide] ?
8.56

----------
Experiment: NAPADE pharmacokinetics in chloralose-urethane anesthetized dogs (HPLC plasma levels, two-compartment model)
Assay type: in vivo, dog (male mongrel)
Settings: dog, plasma; NAPADE-HCl 60 mg/kg, 15-minute IV infusion; read-out: time of peak plasma concentrations (converted)
Measurement Label: Tmax (min)
// return numeric value only (unit: min, not printed)

Please report the recorded Tmax for CCNCCNC(=O)c1ccc(NC(C)=O)cc1 [NAPADE, Desethyl-N-acetylprocainamide] .
15
